// values below are reported MIC
- Test system: Streptococcus pneumoniae
- measurementNotes: Antibacterial activity against Streptococcus pneumoniae UNT-042 expressing ermB/mefA by broth microdilution method
- Type: functional
Express your answer in µg/mL, writing the number without its unit.

CO[C@]1(C)C[C@@H](C)CN[C@H](C)[C@@H]2N(CCCCn3cc(-c4cccc(N)c4)nn3)C(=O)O[C@]2(C)[C@@H](CCF)OC(=O)[C@H](C)C(=O)[C@H](C)[C@H]1O[C@@H]1O[C@H](C)C[C@H](N(C)C)[C@H]1O: 2

// next entry
Challenge: Supply measured MIC of `CC[C@H]1OC(=O)[C@H](C)C(=O)[C@H](C)[C@@H](O[C@@H]2O[C@H](C)C[C@H](N(C)C)[C@H]2O)[C@](C)(OC)C[C@@H](C)CN[C@H](C)[C@@H]2N(CCCCn3cc(-c4cccc(N)c4)nn3)C(=O)O[C@@]21C` in your reply.
Response given: 2

Entry source: ChEMBL document CHEMBL4321783
